# run-description: Pharmacokinetic (PK) study of phosphate conjugates of BMS-777607 in male swiss albino mice
# Assay type: in vivo
# condition-summary: male, Swiss Albino, mouse, in vivo, iv, 2 mg/kg, Bone with Bone marrow, 2 mg/kg single intravenous bolus
measurement-name: half-life (h)
I only need the number, in h, no unit after it.

half-life for Nc1nccc(Oc2ccc(NC(=O)c3c(OCP(=O)([O-])[O-])ccn(-c4ccc(F)cc4)c3=O)cc2F)c1Cl.[Na+].[Na+] ?
1.61

====

# run-description: Pharmacokinetic (PK) study of phosphate conjugates of BMS-777607 in male swiss albino mice
# Type: in vivo
# condition-summary: male, Swiss Albino, mouse, in vivo, iv, 2 mg/kg, Plasma, 2 mg/kg single intravenous bolus
measurement-name: clearance (mL/min/kg)
I only need the number, in mL/min/kg, no unit after it.

clearance for Nc1nccc(Oc2ccc(NC(=O)c3c(OCP(=O)([O-])[O-])ccn(-c4ccc(F)cc4)c3=O)cc2F)c1Cl.[Na+].[Na+] ?
3.36

====

# run-description: Pharmacokinetic (PK) study of phosphate conjugates of BMS-777607 in male swiss albino mice
# Type: in vivo
# condition-summary: mouse, Plasma, 2 mg/kg single intravenous bolus
measurement-name: AUC(0-t) (ng·h/mL)
I only need the number, in ng·h/mL, no unit after it.

AUC(0-t) for CCOc1ccn(-c2ccc(F)cc2)c(=O)c1C(=O)Nc1ccc(Oc2ccnc(N)c2Cl)c(F)c1 [BMS-777607, reference compound] ?
1690

====

# run-description: Pharmacokinetic (PK) study of phosphate conjugates of BMS-777607 in male swiss albino mice
# Format: in vivo
# condition-summary: male, Swiss Albino, mouse, in vivo, iv, 2 mg/kg, Bone with Bone marrow, 2 mg/kg single intravenous bolus
measurement-name: clearance
Don't forget the unit after the number, please.

clearance for Nc1nccc(Oc2ccc(NC(=O)c3c(OCP(=O)([O-])[O-])ccn(-c4ccc(F)cc4)c3=O)cc2F)c1Cl.[Na+].[Na+] [Compound 10] ?
11.4 mL/min/kg

====

# run-description: in vivo
# Type: in vivo
# condition-summary: mouse, in vivo; Plasma; 2 mg/kg single intravenous bolus, male Swiss Albino mice
# Description: For extended time points (>24 hrs), BID dosing was done 8 hr apart. The study was performed using sparse design to obtain composite profile (n=3/time point) as summarized in the table1. […] The plasma and bone with bone marrow homogenate samples were analyzed using a fit-for purpose LC-MS/MS method with a lower limit of quantification (LLOQ) of 1.00 ng/ml (plasma) and 11.0 ng/g (bone). In some instances, bone marrow was separated from bone and analyzed independently. […]
measurement-name: C0 (ng/mL)
I only need the number, in ng/mL, no unit after it.

C0 for CCOc1ccn(-c2ccc(F)c(OP(=O)(O)O)c2)c(=O)c1C(=O)Nc1ccc(Oc2ccnc(N)c2Cl)c(F)c1 [Compound 12, phosphate] ?
4680

====

# run-description: Pharmacokinetic (PK) study of phosphate conjugates of BMS-777607 in male swiss albino mice
# Type: in vivo
# condition-summary: male, Swiss Albino, mouse, in vivo, iv, 2 mg/kg, Plasma, 2 mg/kg single intravenous bolus
measurement-name: AUC(0-t)
Don't forget the unit after the number, please.

AUC(0-t) for Nc1nccc(Oc2ccc(NC(=O)c3c(OCP(=O)([O-])[O-])ccn(-c4ccc(F)cc4)c3=O)cc2F)c1Cl.[Na+].[Na+] ?
9830 ng·h/mL
